Hey, just so you know, these numbers are from ChEMBL document CHEMBL4513216.

test system: Plasmodium berghei; assay: Screen against P. berghei liver stage (PbLuc), transformed with Luciferase, at 10uM; type: functional, HepG2; conditions: tested at 10 uM
The campaign covered roughly 69,000 compounds. About 8,600 (12%) showed an effect of 50% or more. The entries come from a sample that favours strong results as a whole.
// classify(record): look up INHIBITION in ranges low bracket: < 20%; middle bracket: ≥ 20% and < 40%; high bracket: ≥ 40%

Q) Form field 'band' for Cc1cccnc1CNCC1(O)CCCN(CC2CCC2)C1=O (stereo not given)
A) low bracket

Q) Form field 'band' for Cc1cccnc1CNCC1(O)CCCN(CC2CCCCC2)C1=O (stereo not given)
A) low bracket

Q) Form field 'band' for O=C1N(CC2CCCCC2)CCCC1(O)CN1CCc2[nH]ncc2C1 (stereo not given)
A) high bracket

Q) Form field 'band' for Cc1nc(C)n(C2CCCN(C(=O)c3ccn(C(C)C)n3)C2)n1 (stereo not given)
A) low bracket

Q) Form field 'band' for c1cc(-c2nn3c(CN4CCOCC4)nnc3s2)ccn1
A) middle bracket

Q) Form field 'band' for O=C1CN(c2ccc(CNC(=O)NCCO)cc2)CCN1
A) high bracket

Q) Form field 'band' for Cc1noc(C)c1C1CCCN1C(=O)CN1CC2(CCNCC2)OC1=O (stereo not given)
A) middle bracket

Q) Form field 'band' for O=C1N(CC2CC2)CCCC1(O)CN1CCc2[nH]ncc2C1 (stereo not given)
A) high bracket

----------
system: Plasmodium berghei; test: Screen against P. berghei liver stage (PbLuc), transformed with Luciferase, at 10uM; assay type: functional, HepG2; details: tested at 10 uM
The whole screen tested about 69,000 compounds, of which about 8,600 (12%) showed an effect of 50% or more. For the sample, strong results were picked, then their nearest neighbours and some compounds at random.
Exercise: state measured INHIBITION for each of the molecules provided.
Write the number in % without appending the unit.

According to the records, this molecule Cc1ccsc1CN(Cc1ccccn1)CC(O)CO (configuration not stated) displays INHIBITION of 19.7

According to the records, this molecule CC(C)(C)n1cc(CNC2CCN(C(=O)c3ccoc3)CC2)cn1 displays INHIBITION of 1.75

According to the records, this molecule CC(C)c1sc(Br)nc1C(=O)NCc1ccncc1 displays INHIBITION of 45.3

According to the records, this molecule O=C1CCC2(CCN(Cc3cscn3)CC2)CN1CC1CCCO1 (configuration not stated) displays INHIBITION of -23.5

According to the records, this molecule c1cncc(-n2cnnc2CC2CCNCC2)c1 displays INHIBITION of 8.08

According to the records, this molecule CC1CCN(c2nc3cn(-c4ccc5c(c4)OCO5)c(=O)c-3c[nH]2)CC1 displays INHIBITION of 23.5

According to the records, this molecule NC(=O)C1=NC2=NS(=O)(=O)c3ccccc3N2N1Cc1ccc(Br)cc1 displays INHIBITION of 1.96

According to the records, this molecule CCN(CC)C(=O)CNS(=O)(=O)c1cc(Br)ccc1F displays INHIBITION of 23

According to the records, this molecule Cc1nc2ccccc2nc1NCc1nnc2n1CCC2 displays INHIBITION of 52.9

According to the records, this molecule COc1ccc(OC)c(-n2cnnc2CN)c1 displays INHIBITION of 45.7

According to the records, this molecule CC(C)C(=O)N1CCCC2(CCCN2CC2CCCC2)C1 (configuration not stated) displays INHIBITION of -26.5

According to the records, this molecule O=C(C1CC1)N1CCCC(c2nc(O)cc(-c3ccncc3)n2)C1 (configuration not stated) displays INHIBITION of 47.2

According to the records, this molecule COc1ccc(C)cc1-n1cnnc1C1CCOCC1 displays INHIBITION of 13.5

According to the records, this molecule O=C(CNCCn1cccn1)NCC1(c2ccccc2)CC1 displays INHIBITION of 8.48

According to the records, this molecule CCNC(=O)CNS(=O)(=O)c1cc(Br)ccc1F displays INHIBITION of 53.6

According to the records, this molecule Oc1nc(C2CC2)nc2c1nnn2C1CCN(Cc2ccoc2)CC1 displays INHIBITION of 12.25

According to the records, this molecule Cc1cc(NC(=O)CN2CCOC(CN(C)C)C2)n(C)n1 (configuration not stated) displays INHIBITION of 4.35

According to the records, this molecule COc1ccc(CN2CCC3(CC(=O)N(c4cccc(F)c4)C3)C2)cc1 (configuration not stated) displays INHIBITION of 21.1

According to the records, this molecule Cc1cc(S(=O)(=O)N(CCO)C2CC2)ccc1F displays INHIBITION of 26.1

According to the records, this molecule O=S(=O)(c1ccccc1)N1C[C@@H]2COC[C@]2(COCC2CC2)C1 displays INHIBITION of 44.2

According to the records, this molecule O=C(C1CN(CC2CCOCC2)CC12CCOCC2)N1CCCC1 (configuration not stated) displays INHIBITION of 29.8

According to the records, this molecule c1ccc2nc(N3CCCCC3)c(NCc3nnc4n3CCC4)nc2c1 displays INHIBITION of 0.897

According to the records, this molecule O=S(=O)(c1cccnc1)N1C[C@@H]2COC[C@]2(CN2CCOCC2)C1 displays INHIBITION of 55.5

According to the records, this molecule COc1ccc(-n2cnnc2CC2CCNCC2)cc1 displays INHIBITION of 65.7

According to the records, this molecule O=C(Cc1ccsc1)N1C[C@@H]2COC[C@]2(COCc2cccnc2)C1 displays INHIBITION of 30.3

According to the records, this molecule COc1cc(CNCCc2cnn(C)c2)cc2c1OCO2 displays INHIBITION of -3.75

According to the records, this molecule CN(C)C(=O)CNS(=O)(=O)c1cc(Br)ccc1F displays INHIBITION of 42.4

According to the records, this molecule CC(=O)N1CCC(N2CC(Cc3nccc4ccn(C)c34)C2)CC1 displays INHIBITION of 28

According to the records, this molecule Cc1c(S(=O)(=O)N2CCCC2c2nnc(-c3ccsc3)o2)cnn1C (configuration not stated) displays INHIBITION of 0.4

According to the records, this molecule O=C(CNCCn1cccn1)NCC1(c2ccccc2)CCC1 displays INHIBITION of 72.8

According to the records, this molecule CC(=O)N1CC2(CCN(C(=O)c3ccc4c(c3)OCCO4)CC2)C1 displays INHIBITION of -38.1

According to the records, this molecule O=S(=O)(N1CCCCCC1)N1CCN(Cc2ccc(F)cc2Br)CC1 displays INHIBITION of 71.2

According to the records, this molecule COC[C@]12COC[C@H]1CN(S(=O)(=O)c1cccnc1)C2 displays INHIBITION of 33

According to the records, this molecule CC(NC(=O)c1nc(=O)[nH][nH]1)c1ccc(OCC2CC2)c(F)c1 (configuration not stated) displays INHIBITION of 5.53

According to the records, this molecule NC(=O)C1=NC2=NS(=O)(=O)c3ccccc3N2N1Cc1ccccc1Cl displays INHIBITION of 30.8

According to the records, this molecule Cc1ccc(F)cc1S(=O)(=O)NCc1cccc(C(=O)N2CCCC2)c1 displays INHIBITION of -77.1

According to the records, this molecule COc1cccc(CNCCc2cc(F)cc3c2OCOC3)c1OC displays INHIBITION of 30

----------
tested on: Plasmodium berghei; experiment: Screen against P. berghei liver stage (PbLuc), transformed with Luciferase, at 10uM; assay type: functional, HepG2; settings: tested at 10 uM
Out of some 69,000 compounds screened, about 8,600 (12%) showed an effect of 50% or more. The entries come from a sample that favours strong results as a whole.
Exercise: state measured INHIBITION for each of the compounds provided.
Write the number in % without appending the unit.

According to the records, this compound CC(C)(O)C1CCN(C(=O)Nc2nc(-c3ccccc3)ns2)CC1 displays INHIBITION of 58.9

According to the records, this compound O=C(c1ccno1)N1CCOC[C@H](Oc2ccc(C(F)(F)F)cc2)C1 displays INHIBITION of 50.2

According to the records, this compound COc1ccc(O[C@H]2COCCN(C(=O)c3ccno3)C2)cc1 displays INHIBITION of -11.1

According to the records, this compound O=C(c1ccno1)N1CCOC[C@H](Oc2ccccc2)C1 displays INHIBITION of 25.3

----------
tested on: Plasmodium berghei; assay: Screen against P. berghei liver stage (PbLuc), transformed with Luciferase, at 10uM; format: functional, HepG2; conditions: tested at 10 uM
The whole screen tested about 69,000 compounds, of which about 8,600 (12%) showed an effect of 50% or more. For the sample, strong results were picked, then their nearest neighbours and some compounds at random.
quantity: INHIBITION (%)
Write the number in % without appending the unit.

According to the records, this compound CCn1nc(C)cc1C(=O)OCC1CC(=O)N(Cc2ccccc2)C1 (stereo unspecified) displays INHIBITION of 10.1

According to the records, this compound Cc1ccc(Br)cc1S(=O)(=O)NCCc1nnc[nH]1 displays INHIBITION of 23.5

According to the records, this compound CS(=O)(=O)Cc1ccc(C(=O)N2CCCC(n3cncn3)C2)o1 (stereo unspecified) displays INHIBITION of 25.8

According to the records, this compound CSc1ncccc1C(=O)N1C[C@@H]2CC[C@H]1CN(c1cnccn1)C2 displays INHIBITION of 0.139

According to the records, this compound N#Cc1ccc(NCC(=O)Nc2ccn(Cc3cccnc3)n2)cc1 displays INHIBITION of 41.4

According to the records, this compound Cc1ccc(S(=O)(=O)NC2CNC(=O)C2)cc1C (stereo unspecified) displays INHIBITION of 38.5

According to the records, this compound CC(C)NC(=O)N1CCN(CC2CC2)CC2(CNC(=O)C2)C1 (stereo unspecified) displays INHIBITION of 69.6

According to the records, this compound Clc1ccc(C(CNCc2cccnc2)n2cccn2)cc1 (stereo unspecified) displays INHIBITION of -4.56

According to the records, this compound O=C(c1c[nH]cn1)N1CCCn2c(CN3CCCCC3)nnc2C1 displays INHIBITION of -56.3

According to the records, this compound O=C1CC(NS(=O)(=O)c2ccc(Br)cc2)CN1 (stereo unspecified) displays INHIBITION of 53.7

According to the records, this compound O=C(CCc1nc(-c2ccccn2)no1)N1CCCC1c1ccsc1 (stereo unspecified) displays INHIBITION of 7.08

According to the records, this compound c1cnc(N2CCO[C@H]3[C@H](OCC4CC4)CC[C@@H]32)nc1 displays INHIBITION of 21.6

According to the records, this compound O=C(NCC(=O)N1CCCC1Cc1cccc(F)c1)c1ccccn1 (stereo unspecified) displays INHIBITION of -6.51

According to the records, this compound CCc1cnc(CCNC(=O)N2CCCC(c3ncc[nH]3)C2)s1 (stereo unspecified) displays INHIBITION of 52.6

According to the records, this compound Cc1cc2[nH]c(=O)oc2cc1S(=O)(=O)N1CCCC(N(C)C)CC1 (stereo unspecified) displays INHIBITION of 11.6

According to the records, this compound CCC1=N[C@@]2(CC[C@@H]3CN(Cc4cccc(Cl)c4)C[C@@H]32)C(=O)N1C displays INHIBITION of 30.3

According to the records, this compound O=C(c1cnccn1)N1CCC2(CC1)CC(Oc1ccccc1)CO2 (stereo unspecified) displays INHIBITION of 41.3

According to the records, this compound CC(C)NC(=O)N1CCN(C(=O)C(C)C)CC2(CC(=O)N(C)C2)C1 (stereo unspecified) displays INHIBITION of 22.2

According to the records, this compound CCC(C)c1cc(C(=O)N(CC(=O)NC)c2cccc(F)c2)on1 (stereo unspecified) displays INHIBITION of 3.04

According to the records, this compound COc1c(CNCc2ccnc(N(C)C)c2)c(C(C)C)nn1C displays INHIBITION of 9.47

According to the records, this compound CN1CCN(c2cccc(Cl)c2CNCCS(C)(=O)=O)CC1 displays INHIBITION of 19.9

According to the records, this compound Cc1nc(CN2CCN(C(=O)c3ccc(=O)n(C)c3)CC2)cs1 displays INHIBITION of -15.9

According to the records, this compound CC(C)N(Cc1cccnc1)C(=O)CNc1ccc(C#N)cc1 displays INHIBITION of -21

According to the records, this compound CCc1ccc(S(=O)(=O)N2CCCC(c3ncc[nH]3)C2)s1 (stereo unspecified) displays INHIBITION of 81.2

According to the records, this compound CCn1c(C)cc(C(=O)N2CCCC(n3ccnc3C)C2)c1C (stereo unspecified) displays INHIBITION of -11.3

According to the records, this compound COCCN(C)CC(=O)N1C[C@@H]2CC[C@H]1CN(C(=O)c1ccncc1)C2 displays INHIBITION of 8.57

According to the records, this compound CCC1=N[C@@]2(CC[C@@H]3CN(CC)C[C@@H]32)C(=O)N1C displays INHIBITION of 23.1

According to the records, this compound CC(C)c1nc(-c2ccnc(N3CCNCC3)n2)no1 displays INHIBITION of 18.2

According to the records, this compound CCC1=N[C@@]2(CC[C@@H]3CN(Cc4ccc(Cl)cc4)C[C@@H]32)C(=O)N1C displays INHIBITION of 50.6

According to the records, this compound Cn1cc(C(=O)N2CCCC(c3ncc[nH]3)C2)cn1 (stereo unspecified) displays INHIBITION of -24.9

According to the records, this compound c1ccc(-c2nc3c(c(NCc4nnc5n4CCC5)n2)CCNC3)cc1 displays INHIBITION of 39.4

According to the records, this compound Cc1cc2ccccc2n1CC(=O)NC(C)C(=O)N1CCOCC1 (stereo unspecified) displays INHIBITION of -7.83

According to the records, this compound O=c1[nH]c2cc(S(=O)(=O)N3CCC(c4ccsc4)CC3)ccc2o1 displays INHIBITION of 16.9

According to the records, this compound Cc1cnn(CCNCc2ccccc2OCc2ccccn2)c1 displays INHIBITION of -15.5

According to the records, this compound Cc1cc(S(=O)(=O)N(C)CC(N)=O)ccc1Br displays INHIBITION of 34.6

According to the records, this compound COCC(=O)N1CCC2(CC1)COCCN2CCN(C)C displays INHIBITION of 0.547
